ASSAY TEXT: NCI Yeast Anticancer Drug Screen. Data for the wt1 strain (AID 149);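 further: 0% = growth of vehicle-treated wt1 cultures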
TEST SETTINGS: S. cerevisiae wt1 strain (SPY 50644) growth inhibition; at 3.7 µM; active compounds read high
About 79,000 compounds went through this panel and 15% of them were active in at least one assay; those are over-represented in the sample as a whole. Activity calls are given as the source filed them. No stated cut-off is given here; in the data, active means growth inhibition above about 70%; inactive means the rest.
PROPERTY LABEL: growth inhibition

Here are 4 compounds together with their reported answers.
COMPOUND: NC(N)=NS(=O)(=O)c1ccc(Nc2c3ccccc3nc3c(C(=O)NC(CO)(CO)CO)cccc23)cc1
growth inhibition: 0% (inactive)
//
COMPOUND: O=c1c2ccccc2nc(-c2cccc([N+](=O)[O-])c2)n1O
growth inhibition: 21% (inactive)
//
COMPOUND: O=C(O)c1cc2c(cc1S(=O)(=O)O)C1C(C3C2C2(Cl)C(Cl)=C(Cl)C3(Cl)C2(Cl)Cl)C2(Cl)C(Cl)=C(Cl)C1(Cl)C2(Cl)Cl (stereo not given)
growth inhibition: 0% (inactive)
//
COMPOUND: OC1(c2ccccc2)C2CC=CC2C1(c1ccccc1)c1ccccc1 (stereo not given)
growth inhibition: -7% (inactive)

Turning now to a further record.
Supply growth inhibition value. Item: `Cc1ccc(S(=O)(=O)NC(=O)C2C(=O)CC3(CCCCC3)CC2=O)cc1`
-16% (inactive)
